Molecular target: SARS-CoV-2 spike S1 protein (SARS-CoV-2, UniProt P0DTC2 16-685)
PROPERTY_LABEL: kon (M⁻¹ s⁻¹)

1) AB-009619 (antibody, V domains shown) VH: QVQLVQSGAEVKKPGASVKVSCKVSGYTLIELSMHWVRQAPGKGLEWMGGFDPEDGETIYAQKFQGRVTMTEDTSTDTAYMELSSLRSEDTAVYYCATGPAAATSGWFDPWGQGTLVTVSS VL: QSALTQPASVSGSPGQSITISCTGTSSDVGGYNYVSWYQQHPGKAPKLMIYDVSNRPSGVSNRFSGSKSGNTASLTISGLQAEDEADYYCSSYTSSSTRVFGGGTKLTVL    28100
2) AB-009646 (antibody, V domains shown) VH: QVQLVESGGGVVQPGRSLRLSCAASGFTFSSYAMHWVRQAPGKGLEWVAVISYDGSNKYYADSVKGRFTISRDNSKNTLYLQMNSLRAEDTAVYYCARACSSTSCYKGDAFDIWGQGTMVTVSS VL: SYELTQPPSVSVSPGQTARITCSGDALPKQYAYWYQQKPGQAPVLVIYKDSERPSGIPERFSGSSSGTTVTLTISGVQAEDEADYYCQSADSSGTYSWVFGGGTKLTVL    15500
3) AB-009221 (antibody, V domains shown) VH: EVQLVESGGGLVQPGGSLRLSCAASGFTVSSNYMSWVRQAPGKGLEWVSVIYSGGSTYYADSVKGRFTISRHNSKNTLYLQMNSLRAEDTAVYYCARDRNAFDIWGQGTMVIVSS VL: DIQMTQSPSSLSASVGDRVSITCQASQDISNDLNWYQQKPGKAPKLLVYDASKLETGVPPRFSGSGSGTDFTFTISSLQPEDIATYYCQQYDNLPLYSFGQGTKLEIK    37700
